Source of measurements: paper PMC10510108

target: human CB2 cannabinoid receptor (Homo sapiens); construct: host or cells: CHO cells; test: biochemical; assay type: binding; details: [3H]WIN 55212-2 displacement, transfected CHO cell lysate; two replicate experiments, error = standard deviation; read-out: Ki (CB2)
As shown below, each of these compounds has a reported Ki value.
Give the value in nM but do not write nM after it.

{"columns": ["Cpd Smiles", "Units Text", "Assay Result"],
 "data": [
  ["CCCCCc1cc(O)c2c(c1)OC(C)(C)[C@@H]1CC[C@@H](C)C[C@@H]21", "nM", 13]
]}

Proceed to the following item.
**Q:** Find the measured Ki of CCCCCc1cc(O)c2c(c1)OC(C)(C)[C@@H]1CC[C@H](C)C[C@@H]21 and report it.
**A:** 105

###

target: human CB2 receptor (Homo sapiens, UniProt P34972); assay: cell-based; conditions: cAMP HTRF, transfected CHO cells; two replicate experiments, error = standard deviation
Below: a set of entries, each annotated with reported EC50.

{"columns": ["Compound", "Assay Result"],
 "data": [
  ["CCCCCc1cc(O)c2c(c1)OC(C)(C)[C@@H]1CC[C@H](C)C[C@@H]21 [4b, (9S)-HHC]", "56 nM"]
]}

Turning now to a further compound:
**Q:** Read the entry CCCCCc1cc(O)c2c(c1)OC(C)(C)[C@@H]1CC[C@@H](C)C[C@@H]21 [4a, (9R)-HHC] and write its reported EC50.
**A:** 6.2 nM

###

target: human CB1 receptor (Homo sapiens); construct: host or cells: CHO cells; experiment: cell-based; conditions: cAMP HTRF, transfected CHO cells; two replicate experiments, error = standard deviation
Sequence (P21554 whole entry): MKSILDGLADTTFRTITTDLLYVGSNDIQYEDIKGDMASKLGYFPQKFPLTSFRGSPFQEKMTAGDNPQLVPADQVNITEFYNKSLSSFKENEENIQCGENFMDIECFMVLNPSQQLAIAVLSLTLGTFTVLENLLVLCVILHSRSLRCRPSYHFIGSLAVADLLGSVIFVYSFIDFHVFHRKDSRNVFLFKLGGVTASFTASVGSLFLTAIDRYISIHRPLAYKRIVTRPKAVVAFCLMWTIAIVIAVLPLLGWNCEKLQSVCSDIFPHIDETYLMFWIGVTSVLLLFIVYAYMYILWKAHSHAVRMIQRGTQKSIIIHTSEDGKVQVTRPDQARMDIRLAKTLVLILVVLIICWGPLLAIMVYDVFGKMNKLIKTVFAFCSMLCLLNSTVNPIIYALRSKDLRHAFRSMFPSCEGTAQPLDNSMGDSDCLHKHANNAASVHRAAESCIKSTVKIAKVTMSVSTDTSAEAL
Quantity: pEC50
# pEC50: negative log10 of molar concentration; output just the value

{"columns": ["Cpd Smiles", "pEC50"],
 "data": [
  ["CCCCCc1cc(O)c2c(c1)OC(C)(C)[C@@H]1CC[C@@H](C)C[C@@H]21", 8.47]
]}

Please examine the following record next.
**Q:** Give recorded pEC50. CCCCCc1cc(O)c2c(c1)OC(C)(C)[C@@H]1CC[C@H](C)C[C@@H]21
**A:** 7.24

###

biological target: human CB1 cannabinoid receptor (Homo sapiens, UniProt P21554); construct: host or cells: Chem-1 cells; test: biochemical; format: binding; details: [3H]CP 55940 displacement, transfected Chem-1 cell lysate; two replicate experiments, error = standard deviation; read-out: Ki (CB1)
Quantity: Ki (µM)
// units = µM; emit number, no label

**Q:** Determine from records and report Ki for CCCCCc1cc(O)c2c(c1)OC(C)(C)[C@@H]1CC[C@H](C)C[C@@H]21 [4b, (9S)-HHC]
**A:** 0.176

###

biological target: human CB1 cannabinoid receptor (Homo sapiens, UniProt P21554); construct: host or cells: Chem-1 cells; experiment: biochemical; format: binding
Quantity: Ki

**Q:** Annotate the molecule CCCCCc1cc(O)c2c(c1)OC(C)(C)[C@@H]1CC[C@@H](C)C[C@@H]21 with its measured Ki.
**A:** 15 nM

###

biological target: human CB2 cannabinoid receptor (Homo sapiens, UniProt P34972); construct: host or cells: CHO cells; assay: biochemical; type: binding; settings: SI; curve fitted to mean replicate values, Cheng Prusoff; read-out: Ki
Sequence (P34972 whole entry): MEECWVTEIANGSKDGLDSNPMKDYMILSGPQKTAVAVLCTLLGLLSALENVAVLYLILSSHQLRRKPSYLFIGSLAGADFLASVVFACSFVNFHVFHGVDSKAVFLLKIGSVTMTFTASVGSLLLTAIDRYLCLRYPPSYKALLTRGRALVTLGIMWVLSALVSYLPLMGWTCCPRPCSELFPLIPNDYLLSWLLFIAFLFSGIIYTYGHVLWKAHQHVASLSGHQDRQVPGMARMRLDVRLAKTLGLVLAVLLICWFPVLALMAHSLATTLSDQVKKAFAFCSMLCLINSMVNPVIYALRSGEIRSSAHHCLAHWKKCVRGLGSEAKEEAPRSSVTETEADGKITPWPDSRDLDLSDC
Quantity: Ki (nM)
Report the value in nM with no unit label.

**Q:** Specify measured Ki for CCCCCc1cc(O)c2c(c1)OC(C)(C)[C@@H]1CC[C@H](C)C[C@@H]21 [4b, (9S)-HHC] .
**A:** 110
